# protocol: Peptide stability in simulated gastric fluid (SGF)
# Format: in vitro ADME
# condition parameters: pig, simulated gastric fluid (SGF) with porcine pepsin, Table 3-3, porcine pepsin, pH 1.2, 37° C., 10 μM, 4 h, read-out: SGF (% remaining 4 h)
*1 amine or outer side, *2 acyl side, *3 side chain or, on linkers, in order; H or OH if unused. Where a SMILES comes first, the peptide text is derived from it. Bridges are numbered along the chain shown (N, C = ends). [ ]: non-standard residue; d: D form. αMeAla(3-pyridyl) = C[C@](N)(Cc1cccnc1)C(=O)O; Phe(3,4-Me2) = Cc1ccc(C[C@H](N)C(=O)O)cc1C; Phe(4-Cl) = N[C@@H](Cc1ccc(Cl)cc1)C(=O)O; X1 = O=C(Cc1ccc(CN[*:1])cc1)[*:2]; αMeV = CC(C)[C@](C)(N)C(=O)O; Dab = NCC[C@H](N)C(=O)O
Known remaining at 4 h, 10 μM of a selection of compounds
Provide only the numeric value, understood in %.

>  <compound>
CC(C)C[C@]1(C)NC(=O)[C@H](Cc2ccc3ccccc3c2)NC(=O)[C@H](Cc2ccc(OCCN)cc2)NC(=O)[C@@H]2CCCNC(=O)CC[C@H](NC(=O)[C@H](CO)NC(=O)Cc3ccc(cc3)CNC(=O)CC[C@@H](C(=O)N[C@@H](CCN)C(=O)N[C@@H](Cc3cccnc3)C(N)=O)NC1=O)C(=O)N[C@@H](Cc1c[nH]c3ccccc13)C(=O)N[C@@H](CCC(N)=O)C(=O)N2

>  <unit abbreviation>
%

>  <remaining at 4 h, 10 μM>
89

$$$$

# context switch: different compound, same remaining at 4 h, 10 μM
Query: remaining at 4 h, 10 μM; subject: CC[C@H](C)[C@@H]1NC(=O)Cc2ccc(cc2)CNC(=O)CC[C@@H](C(=O)N[C@@H](CCN)C(=O)N[C@@](C)(Cc2cccnc2)C(N)=O)NC(=O)[C@](C)(C(C)C)NC(=O)[C@H](Cc2ccc(C)c(C)c2)NC(=O)[C@H](Cc2ccc(Cl)cc2)NC(=O)[C@@H]2CCNC(=O)CC[C@H](NC1=O)C(=O)N[C@@H](Cc1c[nH]c3ccccc13)C(=O)N[C@@H](CCC(N)=O)C(=O)N2 [Compound 171] ([X1]IEWQ[Dab][Phe(4-Cl)][Phe(3,4-Me2)][αMeV]E[Dab][αMeAla(3-pyridyl)]-NH2; lactam 3-6, N-10)
75
